TGT: PDGFRB (Homo sapiens)
Construct: Kinases are expressed as either kinase domains or full length constructs; made in house
Sequence (P09619 33-1106, species assumed): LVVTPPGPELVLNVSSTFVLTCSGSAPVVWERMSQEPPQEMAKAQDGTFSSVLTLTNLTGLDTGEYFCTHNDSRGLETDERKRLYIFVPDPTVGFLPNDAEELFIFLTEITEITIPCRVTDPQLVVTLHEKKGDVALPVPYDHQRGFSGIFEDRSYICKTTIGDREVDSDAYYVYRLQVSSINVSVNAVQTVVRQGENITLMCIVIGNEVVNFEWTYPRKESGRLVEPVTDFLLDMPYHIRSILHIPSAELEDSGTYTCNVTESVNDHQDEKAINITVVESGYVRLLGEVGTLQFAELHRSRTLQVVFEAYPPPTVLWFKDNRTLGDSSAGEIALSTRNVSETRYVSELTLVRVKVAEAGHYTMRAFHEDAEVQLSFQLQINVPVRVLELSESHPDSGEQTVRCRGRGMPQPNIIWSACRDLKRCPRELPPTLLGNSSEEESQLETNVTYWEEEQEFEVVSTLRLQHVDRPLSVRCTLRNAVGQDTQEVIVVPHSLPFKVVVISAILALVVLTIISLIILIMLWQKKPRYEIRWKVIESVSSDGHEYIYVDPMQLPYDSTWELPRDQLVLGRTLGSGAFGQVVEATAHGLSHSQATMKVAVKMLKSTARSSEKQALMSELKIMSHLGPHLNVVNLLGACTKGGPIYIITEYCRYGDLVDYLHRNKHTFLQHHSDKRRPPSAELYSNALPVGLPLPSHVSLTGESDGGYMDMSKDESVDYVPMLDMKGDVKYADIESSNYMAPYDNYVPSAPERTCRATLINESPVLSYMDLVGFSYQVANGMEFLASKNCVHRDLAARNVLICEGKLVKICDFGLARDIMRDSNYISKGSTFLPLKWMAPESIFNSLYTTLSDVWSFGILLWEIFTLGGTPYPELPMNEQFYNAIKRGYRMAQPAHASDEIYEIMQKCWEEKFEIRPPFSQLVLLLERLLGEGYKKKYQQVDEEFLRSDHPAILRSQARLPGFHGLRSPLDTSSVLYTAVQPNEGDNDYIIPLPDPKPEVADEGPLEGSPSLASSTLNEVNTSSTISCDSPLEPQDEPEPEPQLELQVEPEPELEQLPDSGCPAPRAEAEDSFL
ASSAY OVERVIEW: Kinase inhibition assay (33P transfer), PDGFRB
Assay type: biochemical
CONDITION INFO: read-out: PDGFRB-1
MEASUREMENT NAME: IC50

Qu. For the compound `Nc1nc2ccccc2n1-c1ncnc(Nc2cccc(CC(=O)NCc3ccccn3)c2)n1` , report IC50.
Ans. 5.32 to 7.75 µM

Qu. Determine its reported IC50: `c1ccc(Cn2ncc3cc(Nc4ncnc(NCCN5CCCC5)n4)ccc32)cc1`
Ans. 8.44 to 10.9 µM

Qu. # return recorded IC50 for entry `c1ccc(Cn2ncc3cc(Nc4ncnc(Nc5ccc(N6CCOCC6)cc5)n4)ccc32)cc1`
Ans. 0.836 to 5.02 µM

Qu. Read the entry `COc1cc(Nc2ncnc(Nc3ccc(OCC(=O)Nc4ccccc4)cc3)n2)cc(OC)c1OC` and write its reported IC50.
Ans. < 0.796 µM

Qu. Hello, please tell me recorded IC50 for this one: `COC(=O)c1sccc1Nc1ncnc(N2CCCc3cc(C)ccc32)n1`
Ans. > 11.8 µM
